test system: MV-4-11 (carrying MLL-AF4); experiment: Inhibition of proliferation of human tumor cells (Alamar Blue, 7 days), MV-4-11; assay type: cell-based; details: Homo sapiens, MV4-11, 168 h, MV-4-11 cells (carrying MLL-AF4), method calls the value GI50
Answer each item with its documented IC50.
Give bare numbers, in nM.

Previously resolved entries follow.
>  <molecule>
Cc1nc(F)c2c(-c3ccc(F)cc3C(=O)N3CCOC[C@H]3C)cc(C3CN(CC4CCOCC4)C3)cn12

>  <display-unit>
nM

>  <IC50>
17

$$$$
>  <molecule>
CCN(C(=O)c1cc(F)ccc1-c1cc(C2CCN(Cc3ccc(-c4cc(OC)c(OC)nn4)cc3)C2)cn2c(C)ncc12)C(C)C (stereo not shown)

>  <display-unit>
nM

>  <IC50>
5.5

$$$$
>  <molecule>
CCN(C(=O)c1cc(F)ccc1-c1cc([C@@H]2CCN(C[C@H]3CC[C@H](NS(=O)(=O)CC)CC3)C2)cn2cncc12)C(C)C

>  <display-unit>
nM

>  <IC50>
22

$$$$

Exercise: Requested read-out: IC50. Entry: Cc1nc(F)c2c(-c3ccc(F)cc3C(=O)N3[C@H](C)COC[C@H]3C)cc(C3CN(CC4CCOCC4)C3)cn12
Solution: 6.6
